Just for reference, the array DNA melting data of Ke et al. (doi:10.1101/2024.01.08.574731) is where these values come from.

Assay: folding enthalpy; higher = less favourable; fluorescence melt of hairpins on a sequencing array, two-state fit
Settings: sodium 0.088 M
measured-attribute: folding enthalpy (kcal/mol)
Hi! Could you send only the number? It should be in kcal/mol, unit omitted.

## Input Which value of folding enthalpy has been reported for GAAGCTGGAAACGGTTTC (((.(.(....).).))) in the records?
## Output -10.3

## Input Which value of folding enthalpy has been reported for GGAGTCTCGAAAGAGTCC (((..(((....)))))) in the records?
## Output -20.1

## Input Which value of folding enthalpy has been reported for GACACCGAAAGGTAAGTC ((((((....)))..))) in the records?
## Output -20.2

## Input Which value of folding enthalpy has been reported for GACGCTCCGAAAGGAGTC (((..(((....)))))) in the records?
## Output -9.32

## Input Which value of folding enthalpy has been reported for GCGCTGGGAAACTAGCGC (((((.(....).))))) in the records?
## Output -32.4

----------
Entries and their folding enthalpy
Test: folding enthalpy; higher = less favourable; fluorescence melt of hairpins on a sequencing array, two-state fit
Details: sodium 0.088 M
Include the unit after the number when you answer.

Example results:
GCTCGCGAAAGCGTAGC ((((((....))).))) | -19 kcal/mol
GATCGACCAATCGATC ((((((....)))))) | -34.2 kcal/mol
GATCGATGCGTCGATC ((((((....)))))) | -43.7 kcal/mol
GATCGCGAAAGCGCGATC ((((((....)))..))) | -30.8 kcal/mol

## Input Which value of folding enthalpy has been reported for GAGAGTGGAAACACTTTC ((.((((....)))).)) in the records?
## Output -19.4 kcal/mol

## Input Which value of folding enthalpy has been reported for GGTTCCCGAAAGGGGACC (((.(((....))).))) in the records?
## Output -30.8 kcal/mol

## Input Which value of folding enthalpy has been reported for GTGTTACGAAAGTACAC (((.(((....)))))) in the records?
## Output -27 kcal/mol

## Input Which value of folding enthalpy has been reported for GATCTCCCGGAGATC ((((((...)))))) in the records?
## Output -37.4 kcal/mol

## Input Which value of folding enthalpy has been reported for GCACTAGCGAAAGCTTGC (((..(((....)))))) in the records?
## Output -12.6 kcal/mol

## Input Which value of folding enthalpy has been reported for GATCCCGCGTGGGATC ((((((....)))))) in the records?
## Output -38.4 kcal/mol

## Input Which value of folding enthalpy has been reported for GATCAGGCTCCTGATC ((((((....)))))) in the records?
## Output -42.8 kcal/mol

----------
Assay: folding enthalpy; higher = less favourable; fluorescence melt of hairpins on a sequencing array, two-state fit
Details: sodium 0.088 M
measured-attribute: folding enthalpy (kcal/mol)
Hi! Could you send only the number? It should be in kcal/mol, unit omitted.

## Input Which value of folding enthalpy has been reported for GAGACCGAAAGGTATCTC ((((((....)))..))) in the records?
## Output -24

## Input Which value of folding enthalpy has been reported for GTGTCGGGAAACCGACGC (.(((((....))))).) in the records?
## Output -19.8

## Input Which value of folding enthalpy has been reported for GCGTACAGACGC ((((....)))) in the records?
## Output -22.5

## Input Which value of folding enthalpy has been reported for GACCTAGGAAACTAGGCC (.(((((....))))).) in the records?
## Output -19.3

----------
Experiment: folding enthalpy; higher = less favourable; fluorescence melt of hairpins on a sequencing array, two-state fit
Settings: sodium 0.088 M
measured-attribute: folding enthalpy (kcal/mol)
Hi! Could you send only the number? It should be in kcal/mol, unit omitted.

GGGGTTCGAAAGAAACCC (((.(((....))).))) | -41.3
GCGATGGGAAACTATCGC (((((.(....).))))) | -42
GGGCACGAAAGTGGTCCC ((((((....)))..))) | -17.5

Read the next record carefully.
## Input Which value of folding enthalpy has been reported for GAAAAGGGAAACCTTTTC (((((((....))))))) in the records?
## Output -38.8

----------
Experiment: folding enthalpy; higher = less favourable; fluorescence melt of hairpins on a sequencing array, two-state fit
Conditions: sodium 0.088 M
measured-attribute: folding enthalpy (kcal/mol)
Hi! Could you send only the number? It should be in kcal/mol, unit omitted.

Example results:
GAAGCCGAAAGGCCTTTC ((((((....)))..))) | -9.88
GATCCCACATGGGATC ((((((....)))))) | -45.5
GGGTGCGAAAGCAAGCCC ((((((....)))..))) | -23.1
GGTTGCGGAAACGTAGCC ((.(.((....)).).)) | -27.3
GTGAAAGAAATTTCAC ((((((....)))))) | -29.4

Read the next record carefully.
## Input Which value of folding enthalpy has been reported for GAGCTTGGAAACAGGCTC ((((.((....)).)))) in the records?
## Output -45

----------
Entries and their Tm
Assay: melting temperature; fluorescence melt of hairpins on a sequencing array, two-state fit, raised by 9.35 °C to match UV melts
Conditions: sodium 0.088 M
Hi! Could you send only the number? It should be in °C, unit omitted.

Example results:
GATCCAATTTGGATC ((((((...)))))) | 51.1
GATCAGTAATCTGATC ((((((....)))))) | 48.6

## Input Which value of Tm has been reported for GTCTGCGAAAGCACGAC ((((((....))).))) in the records?
## Output 50.2

## Input Which value of Tm has been reported for GCCGTGCGAAAGCCCTGC ((.(.((....)).).)) in the records?
## Output 30.3

## Input Which value of Tm has been reported for GTACATGGAAACACGTAC ((((.((....)).)))) in the records?
## Output 36.2

## Input Which value of Tm has been reported for GTGCACGGAAACGTGCGC (.(((((....))))).) in the records?
## Output 63.9

----------
Entries and their Tm
Test: melting temperature; fluorescence melt of hairpins on a sequencing array, two-state fit, raised by 9.35 °C to match UV melts
Details: sodium 0.088 M
Hi! Could you send only the number? It should be in °C, unit omitted.

Example results:
GGTAAGGAAACTTACC ((((((....)))))) | 50.3
GAAGGTGGAAACGTCTTC ((((..(....)..)))) | 36.2
GCCTTGCGAAAGCTACGC ((.(.((....)).).)) | 46.3

## Input Which value of Tm has been reported for GATCATTGAAATGATC ((((((....)))))) in the records?
## Output 46

## Input Which value of Tm has been reported for GAGCTAGGAAACTAGCTC (((((((....))))))) in the records?
## Output 62.4

## Input Which value of Tm has been reported for GTAACCGAAAGGTTCTAC ((((((....)))..))) in the records?
## Output 37.7

## Input Which value of Tm has been reported for GCGAAGCGAAAGCACCGC (((..((....))..))) in the records?
## Output 43.8

## Input Which value of Tm has been reported for GATCTCGTTGGAGATC ((((((....)))))) in the records?
## Output 54.2

## Input Which value of Tm has been reported for GCCTTGCGAAAGCCATGC ((.(.((....)).).)) in the records?
## Output 27

## Input Which value of Tm has been reported for GTGTCGGGAAACCGACGC (.(((((....))))).) in the records?
## Output 60.5

## Input Which value of Tm has been reported for GGGATAGCGAAAGCTCCC (((..(((....)))))) in the records?
## Output 50.1

## Input Which value of Tm has been reported for GGAAAACGAAAGTTTCC (((.(((....)))))) in the records?
## Output 44.1

## Input Which value of Tm has been reported for GTTACTCGAAAGAGAAAC (((.(((....))).))) in the records?
## Output 41.9

## Input Which value of Tm has been reported for GATACCGGAAACGGTATC (((((((....))))))) in the records?
## Output 65

## Input Which value of Tm has been reported for GTAACCGAAAGGTTTTAC ((((((....)))..))) in the records?
## Output 29.2

----------
Experiment: folding enthalpy; higher = less favourable; fluorescence melt of hairpins on a sequencing array, two-state fit
Settings: sodium 0.088 M
measured-attribute: folding enthalpy
Include the unit after the number when you answer.

GACGGAGGAAACTCCGCC (.(((((....))))).) | -14.9 kcal/mol

## Input Which value of folding enthalpy has been reported for GCTAGGGGAAACCTTGGC ((.(.((....)).).)) in the records?
## Output -23.8 kcal/mol

## Input Which value of folding enthalpy has been reported for GCTGTTGGAAACAATGGC ((..(((....)))..)) in the records?
## Output -27.4 kcal/mol

## Input Which value of folding enthalpy has been reported for GACGAAGGAAACTTTGTC (((.(((....))).))) in the records?
## Output -28.3 kcal/mol

## Input Which value of folding enthalpy has been reported for GCGGCCAGCCGC ((((....)))) in the records?
## Output -20.5 kcal/mol

## Input Which value of folding enthalpy has been reported for GCCCAGCGAAAGCATGGC (((..((....))..))) in the records?
## Output -16 kcal/mol
